Experiment: activity coefficient (dimensionless); of the first substance listed, at infinite dilution; xn = mol fraction of the nth substance listed
Conditions: 348.2 K; Liquid; Chromatography; x1 = 0
I would appreciate it if you labelled entries t when activity coefficient is 10 or higher, otherwise f.

Query: Say whether COC(C)(C)C [2-methoxy-2-methylpropane] + CCCC[N+]1(C)CCCCC1.N#C[S-] shows activity coefficient of 10 or more.
Result: t

Query: Say whether CCOCC [diethyl ether] + CCCC[N+]1(C)CCCCC1.N#C[S-] shows activity coefficient of 10 or more.
Result: t

Query: Say whether CC(C)=O [acetone] + CCCC[N+]1(C)CCCCC1.N#C[S-] shows activity coefficient of 10 or more.
Result: f

Query: Say whether CCCC(C)=O [pentan-2-one] + CCCC[N+]1(C)CCCCC1.N#C[S-] shows activity coefficient of 10 or more.
Result: f

Query: Say whether CCCOCCC [dipropyl ether] + CCCC[N+]1(C)CCCCC1.N#C[S-] shows activity coefficient of 10 or more.
Result: t

Query: Say whether CCC(=O)CC [pentan-3-one] + CCCC[N+]1(C)CCCCC1.N#C[S-] shows activity coefficient of 10 or more.
Result: f

* * *

Assay: activity coefficient (dimensionless); of the first substance listed, at infinite dilution; xn = mol fraction of the nth substance listed
Conditions: 358.15 K; Liquid; Chromatography; x1 = 0
I would appreciate it if you labelled entries satisfied when activity coefficient is 5 or higher, otherwise not satisfied.

Query: Say whether CCO [ethanol] + CCCC[N+]1(C)CCCCC1.N#C[S-] shows activity coefficient of 5 or more.
Result: not satisfied

Query: Say whether C=CCCCC [hex-1-ene] + CCCC[N+]1(C)CCCCC1.N#C[S-] shows activity coefficient of 5 or more.
Result: satisfied

Query: Say whether c1ccccc1 [benzene] + CCCC[N+]1(C)CCCCC1.N#C[S-] shows activity coefficient of 5 or more.
Result: not satisfied

Query: Say whether CCCCCCCCCC [decane] + CCCC[N+]1(C)CCCCC1.N#C[S-] shows activity coefficient of 5 or more.
Result: satisfied

Query: Say whether Cc1ccccc1 [toluene] + CCCC[N+]1(C)CCCCC1.N#C[S-] shows activity coefficient of 5 or more.
Result: not satisfied

* * *

Assay: activity coefficient (dimensionless); of the first substance listed, at infinite dilution; xn = mol fraction of the nth substance listed
Conditions: 338.2 K; Liquid; Chromatography; x1 = 0
Assign activity coefficient to each entry below.
Simply state the number, no unit and no words.

Query: What value of activity coefficient has been recorded for this entry: CCOCC [diethyl ether] + CCCC[N+]1(C)CCCCC1.N#C[S-]
Result: 11.1

Query: What value of activity coefficient has been recorded for this entry: COC(C)(C)C [2-methoxy-2-methylpropane] + CCCC[N+]1(C)CCCCC1.N#C[S-]
Result: 12.4

Query: What value of activity coefficient has been recorded for this entry: CCCC(C)=O [pentan-2-one] + CCCC[N+]1(C)CCCCC1.N#C[S-]
Result: 3.09

Query: What value of activity coefficient has been recorded for this entry: CCCOCCC [dipropyl ether] + CCCC[N+]1(C)CCCCC1.N#C[S-]
Result: 31

Query: What value of activity coefficient has been recorded for this entry: CCC(=O)CC [pentan-3-one] + CCCC[N+]1(C)CCCCC1.N#C[S-]
Result: 3.11

Query: What value of activity coefficient has been recorded for this entry: CC(C)=O [acetone] + CCCC[N+]1(C)CCCCC1.N#C[S-]
Result: 1.53
